target: Saccharomyces cerevisiae FAS complex (Saccharomyces cerevisiae, UniProt P07149+P19097); construct: A FAS assay using partially purified S. cerevisiae FAS complex was used to measure NADPH oxidation; tissue Sigma; assay: FAS assay measuring NADPH oxidation; settings: read-out: FAS-NADPH ox IC50
Sequence (P07149 whole entry): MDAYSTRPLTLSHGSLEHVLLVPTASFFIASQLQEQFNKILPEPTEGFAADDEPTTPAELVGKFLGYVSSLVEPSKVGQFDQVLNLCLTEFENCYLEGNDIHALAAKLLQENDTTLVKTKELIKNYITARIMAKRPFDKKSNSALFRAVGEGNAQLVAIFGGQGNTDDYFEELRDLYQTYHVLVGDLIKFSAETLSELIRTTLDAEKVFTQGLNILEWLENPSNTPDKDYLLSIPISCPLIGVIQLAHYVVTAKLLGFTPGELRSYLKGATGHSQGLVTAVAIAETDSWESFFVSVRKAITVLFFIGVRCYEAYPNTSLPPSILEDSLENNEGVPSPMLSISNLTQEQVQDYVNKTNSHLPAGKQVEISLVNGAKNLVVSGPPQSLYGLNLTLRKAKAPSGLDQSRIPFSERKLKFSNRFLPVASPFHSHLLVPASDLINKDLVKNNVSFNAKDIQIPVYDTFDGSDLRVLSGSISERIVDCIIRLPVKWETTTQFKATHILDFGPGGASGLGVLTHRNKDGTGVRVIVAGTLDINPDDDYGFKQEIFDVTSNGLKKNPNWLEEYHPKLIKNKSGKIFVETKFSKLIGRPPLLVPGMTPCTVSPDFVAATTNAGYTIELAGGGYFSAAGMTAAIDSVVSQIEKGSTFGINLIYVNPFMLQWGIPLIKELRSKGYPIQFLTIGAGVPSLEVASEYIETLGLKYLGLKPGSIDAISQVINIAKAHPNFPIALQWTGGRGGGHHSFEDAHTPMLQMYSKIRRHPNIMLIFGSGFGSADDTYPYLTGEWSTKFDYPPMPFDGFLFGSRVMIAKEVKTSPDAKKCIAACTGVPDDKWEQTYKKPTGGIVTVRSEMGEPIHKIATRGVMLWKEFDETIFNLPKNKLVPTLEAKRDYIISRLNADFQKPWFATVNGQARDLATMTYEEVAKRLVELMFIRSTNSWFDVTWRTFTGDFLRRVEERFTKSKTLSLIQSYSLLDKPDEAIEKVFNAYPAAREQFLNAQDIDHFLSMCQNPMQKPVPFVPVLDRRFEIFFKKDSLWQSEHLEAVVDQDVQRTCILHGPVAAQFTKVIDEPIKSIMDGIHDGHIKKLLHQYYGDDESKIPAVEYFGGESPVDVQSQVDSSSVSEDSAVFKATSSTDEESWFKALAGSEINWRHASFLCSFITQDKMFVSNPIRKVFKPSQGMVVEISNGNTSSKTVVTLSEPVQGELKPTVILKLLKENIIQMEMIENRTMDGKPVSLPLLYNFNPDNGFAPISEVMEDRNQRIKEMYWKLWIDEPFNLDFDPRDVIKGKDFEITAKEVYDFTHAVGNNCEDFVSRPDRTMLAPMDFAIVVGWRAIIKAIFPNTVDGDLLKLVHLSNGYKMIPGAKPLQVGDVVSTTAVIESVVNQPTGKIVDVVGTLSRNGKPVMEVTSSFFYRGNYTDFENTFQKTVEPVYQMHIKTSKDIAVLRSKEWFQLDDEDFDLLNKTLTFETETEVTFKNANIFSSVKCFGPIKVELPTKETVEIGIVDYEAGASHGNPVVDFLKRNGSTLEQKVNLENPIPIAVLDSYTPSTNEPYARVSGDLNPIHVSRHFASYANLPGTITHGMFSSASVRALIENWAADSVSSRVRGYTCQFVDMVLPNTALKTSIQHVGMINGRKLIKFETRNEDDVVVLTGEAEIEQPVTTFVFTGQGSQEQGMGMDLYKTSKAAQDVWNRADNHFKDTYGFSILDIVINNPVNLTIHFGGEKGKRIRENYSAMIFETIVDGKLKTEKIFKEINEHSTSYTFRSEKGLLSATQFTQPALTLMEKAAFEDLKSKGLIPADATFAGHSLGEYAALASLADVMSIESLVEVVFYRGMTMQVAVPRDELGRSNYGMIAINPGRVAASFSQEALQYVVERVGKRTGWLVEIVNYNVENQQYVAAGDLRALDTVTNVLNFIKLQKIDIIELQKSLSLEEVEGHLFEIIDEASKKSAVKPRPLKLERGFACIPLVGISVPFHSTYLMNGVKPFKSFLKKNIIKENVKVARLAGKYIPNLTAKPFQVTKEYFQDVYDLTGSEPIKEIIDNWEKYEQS
Sequence (P19097 whole entry): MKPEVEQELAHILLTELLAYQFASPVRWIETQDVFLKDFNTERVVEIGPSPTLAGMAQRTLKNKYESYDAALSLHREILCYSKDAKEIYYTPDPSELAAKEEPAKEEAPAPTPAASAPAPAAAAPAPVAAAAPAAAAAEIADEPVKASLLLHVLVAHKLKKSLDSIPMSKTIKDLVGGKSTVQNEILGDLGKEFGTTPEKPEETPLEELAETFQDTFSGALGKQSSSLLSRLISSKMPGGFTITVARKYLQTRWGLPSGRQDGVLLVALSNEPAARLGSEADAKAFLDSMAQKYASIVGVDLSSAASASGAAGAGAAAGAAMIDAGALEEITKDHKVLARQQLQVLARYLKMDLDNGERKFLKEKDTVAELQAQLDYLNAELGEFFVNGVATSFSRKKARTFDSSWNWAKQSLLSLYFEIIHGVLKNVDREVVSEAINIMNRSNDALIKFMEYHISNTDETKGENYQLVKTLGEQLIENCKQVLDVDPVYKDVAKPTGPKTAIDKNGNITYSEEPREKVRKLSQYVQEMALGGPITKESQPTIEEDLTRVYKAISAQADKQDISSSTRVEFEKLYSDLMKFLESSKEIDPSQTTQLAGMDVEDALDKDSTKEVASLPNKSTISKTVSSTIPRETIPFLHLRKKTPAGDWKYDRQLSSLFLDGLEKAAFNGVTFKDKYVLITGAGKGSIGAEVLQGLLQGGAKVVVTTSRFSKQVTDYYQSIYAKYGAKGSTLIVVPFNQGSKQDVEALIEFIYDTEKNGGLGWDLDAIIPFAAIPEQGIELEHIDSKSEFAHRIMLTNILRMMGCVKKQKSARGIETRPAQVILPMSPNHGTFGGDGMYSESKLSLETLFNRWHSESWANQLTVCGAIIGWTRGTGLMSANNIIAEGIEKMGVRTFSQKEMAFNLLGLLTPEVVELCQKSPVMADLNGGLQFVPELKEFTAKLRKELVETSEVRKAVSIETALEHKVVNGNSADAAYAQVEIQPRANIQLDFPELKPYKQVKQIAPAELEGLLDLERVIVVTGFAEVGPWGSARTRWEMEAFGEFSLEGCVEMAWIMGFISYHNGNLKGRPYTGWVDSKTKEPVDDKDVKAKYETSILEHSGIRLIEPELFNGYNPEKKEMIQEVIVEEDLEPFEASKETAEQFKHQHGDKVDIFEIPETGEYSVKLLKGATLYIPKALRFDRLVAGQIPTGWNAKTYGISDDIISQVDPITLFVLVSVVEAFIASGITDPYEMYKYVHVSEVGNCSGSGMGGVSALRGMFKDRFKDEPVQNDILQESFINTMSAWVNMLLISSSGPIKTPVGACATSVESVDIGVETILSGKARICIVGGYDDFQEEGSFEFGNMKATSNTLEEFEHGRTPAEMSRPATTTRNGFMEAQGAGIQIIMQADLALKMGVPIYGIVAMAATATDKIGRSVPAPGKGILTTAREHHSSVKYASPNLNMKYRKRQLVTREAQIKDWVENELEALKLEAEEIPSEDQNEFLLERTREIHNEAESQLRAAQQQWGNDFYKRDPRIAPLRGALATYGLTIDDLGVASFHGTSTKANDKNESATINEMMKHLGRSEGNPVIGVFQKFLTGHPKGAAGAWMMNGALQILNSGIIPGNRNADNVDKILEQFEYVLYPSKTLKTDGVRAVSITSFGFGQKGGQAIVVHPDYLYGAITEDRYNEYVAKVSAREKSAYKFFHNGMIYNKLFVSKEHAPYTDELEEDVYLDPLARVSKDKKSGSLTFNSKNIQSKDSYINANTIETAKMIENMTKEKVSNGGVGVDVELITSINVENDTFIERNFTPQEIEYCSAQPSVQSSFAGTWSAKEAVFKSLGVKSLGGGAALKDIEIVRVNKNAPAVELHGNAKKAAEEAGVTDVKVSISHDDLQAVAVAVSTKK
measurementKind: IC50

For C/C=C/C/C=C/CCC(=O)[C@H]1O[C@H]1C(N)=O [Cerulenin, 2,3-Epoxy-4-oxo-7,1-dodecadienamide] , what is its reported IC50? 700 to 1300 nM
